# measured target: Ubiquitin carboxyl-terminal hydrolase 8 (Homo sapiens)
# test protocol: Inhibition of N-terminal His-6 tagged USP8 (734 to 1110 residues) (unknown origin) expressed in Escherichia coli BL21 (DE3) cells at 10 nM measured after 3 hrs by fluorescence based Plate reader method relative to control
# stated conditions: values are per cent of control
Classification field. Basis: residual activity. Definitions: class 1 = under 40%, class 2 = from 40% up to 60%, class 3 = 60% and over

Consider the worked cases shown below.
O=C1c2ccccc2C(=O)c2oc(-c3cccc([N+](=O)[O-])c3)nc21; class 2
O=C1c2ccccc2C(=O)c2oc(-c3ccc(F)cc3Cl)nc21; class 1
O=C1c2ccccc2C(=O)c2oc(-c3ccc(F)cc3)nc21; class 2
CN1CC[C@@H](Oc2ccc(Cl)c(-c3nc4c(o3)C(=O)c3ccccc3C4=O)c2)C1; class 1
COc1cc(F)cc(-c2nc3c([nH]2)C(=O)c2ccccc2C3=O)c1; class 3
O=C1c2ccccc2C(=O)c2oc(-c3ccccc3C(F)(F)F)nc21; class 2

INPUT: // bin(item) where item = COc1cc(F)cc(-c2nc3c(o2)C(=O)c2ccccc2C3=O)c1
OUTPUT: class 1

INPUT: // bin(item) where item = O=C1c2ccccc2C(=O)c2oc(-c3cc(Cl)ccc3Cl)nc21
OUTPUT: class 2

---

# measured target: Ubiquitin carboxyl-terminal hydrolase 8 (Homo sapiens) (UniProt P40818)
# Sequence (P40818 whole entry, the tested form may be a part): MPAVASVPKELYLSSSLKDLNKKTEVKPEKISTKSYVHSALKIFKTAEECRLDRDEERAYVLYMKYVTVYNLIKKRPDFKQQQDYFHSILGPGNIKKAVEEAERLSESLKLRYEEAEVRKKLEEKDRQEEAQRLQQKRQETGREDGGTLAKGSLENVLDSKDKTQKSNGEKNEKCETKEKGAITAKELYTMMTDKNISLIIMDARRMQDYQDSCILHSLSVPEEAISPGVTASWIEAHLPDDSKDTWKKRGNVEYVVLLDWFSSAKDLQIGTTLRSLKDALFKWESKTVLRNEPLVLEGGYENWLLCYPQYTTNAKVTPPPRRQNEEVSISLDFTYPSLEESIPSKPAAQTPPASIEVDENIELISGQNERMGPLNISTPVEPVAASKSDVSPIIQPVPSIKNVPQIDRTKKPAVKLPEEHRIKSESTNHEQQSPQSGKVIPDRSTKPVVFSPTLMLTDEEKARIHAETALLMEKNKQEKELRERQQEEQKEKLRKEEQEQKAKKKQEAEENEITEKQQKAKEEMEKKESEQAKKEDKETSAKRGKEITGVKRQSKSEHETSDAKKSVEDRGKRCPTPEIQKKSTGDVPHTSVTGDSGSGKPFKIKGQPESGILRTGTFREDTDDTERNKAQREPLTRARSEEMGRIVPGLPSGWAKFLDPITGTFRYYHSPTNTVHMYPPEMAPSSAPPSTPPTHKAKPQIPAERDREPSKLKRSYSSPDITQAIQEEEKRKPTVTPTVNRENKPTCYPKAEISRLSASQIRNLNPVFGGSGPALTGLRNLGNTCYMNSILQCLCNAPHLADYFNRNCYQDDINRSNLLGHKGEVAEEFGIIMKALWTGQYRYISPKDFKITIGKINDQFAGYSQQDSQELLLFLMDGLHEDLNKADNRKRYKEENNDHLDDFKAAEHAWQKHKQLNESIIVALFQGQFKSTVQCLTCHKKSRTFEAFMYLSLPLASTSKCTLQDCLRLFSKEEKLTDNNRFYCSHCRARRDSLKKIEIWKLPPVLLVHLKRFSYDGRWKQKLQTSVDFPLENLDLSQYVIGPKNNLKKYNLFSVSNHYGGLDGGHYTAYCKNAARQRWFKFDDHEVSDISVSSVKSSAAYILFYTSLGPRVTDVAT
# test protocol: Inhibition of N-terminal His-6 tagged USP8 (734 to 1110 residues) (unknown origin) expressed in Escherichia coli BL21 (DE3) cells at 100 nM measured after 3 hrs by fluorescence based Plate reader method relative to control
# stated conditions: values are per cent of control
reported endpoint: residual activity (%)
Give just the numeric value; % need not be written.

Reference set, count: 5
O=C1c2ccccc2C(=O)c2oc(-c3ccc(Cl)cc3)nc21; 22.5
CN1CCN(CCOc2ccc(Cl)c(-c3nc4c(o3)C(=O)c3ccccc3C4=O)c2F)CC1; 32.6
CN1CC[C@@H](Oc2ccc(Cl)c(-c3nc4c(o3)C(=O)c3ccccc3C4=O)c2F)C1; 20.5
COc1ccc(F)c(-c2nc3c(o2)C(=O)c2ccccc2C3=O)c1Cl; 23.6
O=C1c2ccccc2C(=O)c2oc(-c3c(Cl)cccc3Cl)nc21; 24.9

INPUT: Endpoint output: residual activity of CN1CC[C@@H](Oc2cccc(-c3nc4c(o3)C(=O)c3ccccc3C4=O)c2F)C1 . Value?
OUTPUT: 38.6

INPUT: Endpoint output: residual activity of CN1CC[C@@H](Oc2ccc(Cl)c(-c3nc4c(o3)C(=O)c3ccccc3C4=O)c2)C1 . Value?
OUTPUT: 25

INPUT: Endpoint output: residual activity of CN1CC[C@H](Oc2cccc(-c3nc4c(o3)C(=O)c3ccccc3C4=O)c2)C1 . Value?
OUTPUT: 29.8

INPUT: Endpoint output: residual activity of CN1CCN(CCOc2cccc(-c3nc4c(o3)C(=O)c3ccccc3C4=O)c2)CC1 . Value?
OUTPUT: 53.6

---

# test protocol: Half life in ICR mouse at 10 mg/kg, po measured upto 1440 mins by LC-MS/MS analysis
# Format: ADME, organism-based
# stated conditions: in vivo
Below, each entry is listed alongside its reported half-life.
Give just the numeric value; min need not be written.

CN1CC[C@@H](Oc2ccc(F)c(-c3nc4c(o3)C(=O)c3ccccc3C4=O)c2Cl)C1; 105

# next compound below
INPUT: Endpoint output: half-life of CN1CC[C@@H](Oc2ccc(Cl)c(-c3nc4c(o3)C(=O)c3ccccc3C4=O)c2)C1 . Value?
OUTPUT: 86.4
